Test system: G-361
Measurement Description: Cytotoxicity against human G361 cells after 3 days by MTT assay
Assay type: functional, cell-based
Condition Parameters: G-361, 72 h
Listed here: items and their measured IC50.
The figure you give is taken to be in nM; do not add the unit.

>>> recorded_result("N#Cc1c(-c2ccccc2)nc(SCc2nc3ccccc3[nH]2)nc1N1CCNCC1")
2.5
>>> recorded_result("N#Cc1c(-c2ccccc2)nc(SCc2nc3ccccc3[nH]2)nc1N1CCN(S(=O)(=O)c2ccccc2)CC1")
8.62
>>> recorded_result("Cl.N=c1[nH]c(=S)[nH]c2nc(SCc3nc4ccccc4[nH]3)nc(-c3ccccc3)c12")
3.37

Could you please provide reported IC50 for N#Cc1c(Nc2ccccn2)nc(SCc2nc3ccccc3[nH]2)nc1-c1ccccc1 ? Thanks!
8.9

Input N#Cc1c(NC(N)=O)nc(SCc2nc3ccccc3[nH]2)nc1-c1ccccc1 , output reported IC50.
2.55

Quickly give me recorded IC50 for N#Cc1c(NN)nc(SCc2nc3ccccc3[nH]2)nc1-c1ccccc1
14.7

Supply reported IC50 belonging to this compound: N#Cc1c(Cl)nc(SCc2nc3ccccc3[nH]2)nc1-c1ccccc1
12.5

For the compound N#Cc1c(NNC(N)=S)nc(SCc2nc3ccccc3[nH]2)nc1-c1ccccc1 , give its measured IC50 value.
3.96

Provide one value: measured IC50 of Cl.N=c1[nH]c(=O)[nH]c2nc(SCc3nc4ccccc4[nH]3)nc(-c3ccccc3)c12
3.2

Specify reported IC50 for the compound shown: CNc1nc(SCc2nc3ccccc3[nH]2)nc(-c2ccccc2)c1C#N
12.5

Output IC50 of Cc1ccc(S(=O)(=O)N2CCN(c3nc(SCc4nc5ccccc5[nH]4)nc(-c4ccccc4)c3C#N)CC2)cc1
4.38

Give reported IC50 value for N#Cc1c(-c2ccccc2)nc(SCc2nc3ccccc3[nH]2)nc1N1CCN(C(=O)c2ccc([N+](=O)[O-])cc2)CC1
2.4

Please give the documented IC50 of N#Cc1c(Nc2ccncc2)nc(SCc2nc3ccccc3[nH]2)nc1-c1ccccc1
2.55

Supply IC50 value. Item: N#Cc1c(Nc2nccs2)nc(SCc2nc3ccccc3[nH]2)nc1-c1ccccc1
11.9

Source listed as ChEMBL document CHEMBL1165908.
